Here, compounds appear alongside pIC50 reported for MAGL (Homo sapiens) in the literature.
pIC50: −log10 of the molar value.
readout-name: pIC50

# given-smiles, readout-name, result-value
records = [
    ("O=C(c1ccccc1)N1CCN(C2CN(C(=O)c3ccc4c(cnn4-c4cccc(OC(F)(F)F)c4)c3)C2)CC1", "pIC50", 7.29),
    ("O=C(c1ccc2c(-c3cccc(F)c3)c[nH]c2c1)N1CC(N[C@H]2CCN(C(=O)c3ccccc3)C2)C1", "pIC50", 6.46),
    ("O=C1CO[C@H]2CCN(C(=O)N3CC(c4ccc(-c5ncccc5Cl)cc4)C3)C[C@H]2N1", "pIC50", 8.57),
    ("CC(C)(C)c1ncn(-c2ccc(C(=O)N3CCN(c4nc5nc(Cl)ccc5o4)CC3)cc2Cl)n1", "pIC50", 7.12),
]

1: Cc1nc2cc(C(=O)N3CC(N4CCN(C(=O)c5cscn5)CC4)C3)ccc2n1-c1ccc(C(F)(F)F)cc1
2: Cc1ccc(C2CN(C(=O)N3CC[C@@H]4OCC(=O)N[C@@H]4C3)C2)cc1C
QUERY: Look at 1 and 2 . Which one has the lower recorded pIC50 number? Give the chosen item's label as your response.
RESULT: 1
(1: 5.58, 2: 7.52)
